// provenance: patent US20260265194A1

Tested on: HIV-1 JR-FL
Method summary: Single-round pseudovirus infection inhibition (luciferase), JR-FL Env
Assay type: cell-based
Recorded conditions: Cf2Th target cells expressing CD4 and CCR5
pIC50: −log10 of the molar value.

Mol	Assayed system	pIC50
CNCc1ccc2c(c1)C[C@H](CN=C(N)N)[C@H]2NC(=O)C(=O)Nc1ccc(Cl)c(F)c1.O=C(O)C(F)(F)F.O=C(O)C(F)(F)F	HIV-1 JR-FL	4.91

* * *

Tested on: HIV-1 AD8
Method summary: Single-round pseudovirus infection inhibition (luciferase), AD8 Env
Type: cell-based
Recorded conditions: Cf2Th target cells expressing CD4 and CCR5
pIC50: −log10 of the molar value.
Measured quantity: pIC50

Mol	Assayed system	Measured quantity	Value measured
CNCc1ccc2c(c1)C[C@H](CN=C(N)N)[C@H]2NC(=O)C(=O)Nc1ccc(Cl)c(F)c1.O=C(O)C(F)(F)F.O=C(O)C(F)(F)F	HIV-1 AD8	pIC50	5.77
